# MEASURED_ON: T1, human OX40L protein (OX40L-his), Acro Biosystems Cat #OXL-H52Q8 (human, UniProt P23510 51-183)
# T1 sequence: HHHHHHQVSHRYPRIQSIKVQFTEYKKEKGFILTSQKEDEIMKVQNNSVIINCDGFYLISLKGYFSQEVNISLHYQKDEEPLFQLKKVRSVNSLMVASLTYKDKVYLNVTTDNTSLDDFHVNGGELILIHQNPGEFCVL
# MEASUREMENT_DESCRIPTION: cell-based or functional assay
RECORDED_METRIC: IC50 (nM), OX40L blockade assay (luminescence of NFκB-luc2/OX40 Jurkat cells)

BINDER: reference anti-OX40L antibody O4L (VH and VL of oxelumab) (antibody, human IgG4 S228P, kappa, V domains shown) VH: EVQLLESGGGLVQPGGSLRLSCAASGFTFNSYAMSWVRQAPGKGLEWVSIISGSGGFTYYADSVKGRFTISRDNSRTTLYLQMNSLRAEDTAVYYCAKDRLVAPGTFDYWGQGALVTVSS VL: DIQMTQSPSSLSASVGDRVTITCRASQGISSWLAWYQQKPEKAPKSLIYAASSLQSGVPSRFSGSGSGTDFTLTISSLQPEDFATYYCQQYNSYPYTFGQGTKLEIKR
TEST_VALUE: 1.95
